B1: Zinc finger MYM-type protein 6, residues 427 to 504; numbered along this chain, O95789 (parent)
chain: KLKCQHCNHLFATKPELLFYKGKMFLFCGKNCSDEYKKKNKVVAMCDYCKLQKIIKETVRFSGVDKPFCSEVCKFLSA

- Variants of: B1
- protocol_summary: abundance fitness (aPCA) (normalised: wild type 0, dead -1); higher = more abundant; growth selection in yeast, the domain comes from the species named
- recorded_conditions: Homo sapiens
result_type: abundance fitness
Answers are plain numbers.

Some solved entries appear below for comparison.
K74V | -0.674
D65F | -0.598
E57V | -0.059
S70P | -0.563
C69Q | -0.404

Please state, for each entry, its recorded abundance fitness.
1. V43D
2. S62L
3. G63C
4. N40D
5. V72Y
6. M45P
7. C46A

# output
-0.271
-0.19
-0.709
0.019
0.757
-0.328
-0.479

Please state, for each entry, its recorded abundance fitness.
1. S62G
2. N31G
3. T58V
4. R60C
5. I54A
6. Y48V
7. F75G
8. K37L

# output
1: 0.327; 2: -0.026; 3: 0.031; 4: -0.059; 5: 0.557; 6: -0.677; 7: 0.484; 8: -0.134

Please state, for each entry, its recorded abundance fitness.
1. K50E
2. N31V

# output
1. -0.363
2. -0.077
